# ASSAY_NAME: in vitro
# RUN_CONDITIONS: PAMPA
Recorded Papp determines the label; the label ranges are b0 = under 3 ×10⁻⁶ cm/s, b1 = from 3 ×10⁻⁶ cm/s up to 7 ×10⁻⁶ cm/s, b2 = 7 ×10⁻⁶ cm/s and over

Here's what some known entries look like.
COMPOUND: Cc1cc(C(=O)N[C@@H]2CCN(c3c(C(=O)N4CCOCC4)cc(C#N)cc3C(F)F)C2)c(F)c(=O)[nH]1
CLASS: b0
--
COMPOUND: COc1cccc2[nH]c(=O)cc(C(=O)N[C@H]3CN(c4c(C(=O)N5CCOCC5)cc(C)cc4C4CC4)C[C@@H]3OC)c12
CLASS: b1
--
COMPOUND: O=C(N[C@@H]1CCN(c2c(C(=O)N3CCOCC3)cc(Br)cc2C(F)(F)F)C1)c1c(F)c(=O)[nH]c2c(F)c(F)ccc12
CLASS: b2
--
COMPOUND: N#Cc1cc(C(=O)N2CCOCC2)c(N2CC[C@@H](NC(=O)c3cc(=O)[nH]c4c(F)c(F)ccc34)C2)c(C(F)(F)F)c1
CLASS: b1
--
COMPOUND: CN1CCN(C(=O)c2cc(C#N)cc(C(F)(F)F)c2N2CC[C@@H](NC(=O)c3cc(=O)[nH]c4c(F)cccc34)C2)CC1
CLASS: b0

Using the reported Papp, which band applies to "Cc1cc(C(=O)N2CCOCC2)c(N2C[C@H](NC(=O)c3cc(=O)[nH]c4c(F)cc(F)cc34)CC2=O)c(C2CC2)c1" ?
b1

For this compound, which bin applies? "N#Cc1cc(C(=O)N2CCC(F)(F)C2)c(N2CC[C@@H](NC(=O)c3cc(=O)[nH]c4c(F)cccc34)C2)c(C(F)(F)F)c1"
b2

Category of "C[C@@]12COC[C@@H]1CN(C(=O)c1cc(C#N)cc(C(F)(F)F)c1N1CC[C@@H](NC(=O)c3cc(=O)[nH]c4c(F)cccc34)C1)C2" , please.
b2

State the class of the compound shown: "O=C(N[C@@H]1CCN(c2c(C(=O)N3CCOCC3)cc(Br)cc2C(F)(F)F)C1)c1cc(=O)[nH]c2c(Cl)cccc12"
b2

Each compound maps to one class by Papp. Which class for "Cc1[nH]c(=O)c(F)c(C(=O)N[C@@H]2CCN(c3c(C(=O)N4CCOCC4)cc(C#N)cc3C(F)(F)F)C2)c1Cl" ?
b0

Band of "Cc1cc(C(=O)N[C@@H]2CCN(c3c(C(=O)N4CCOCC4)cc(C#N)cc3C(F)(F)F)C2)c(F)c(=O)[nH]1" ?
b0

// bin(item) where item = O=C(N[C@@H]1CCN(c2c(C(=O)N3CC4COCC4C3)cc(Br)cc2C(F)(F)F)C1)c1cc(=O)[nH]c2c(F)cccc12 (stereo partly shown)
b2

Which bin, given its Papp, does "O=C(N[C@@H]1CCN(c2c(C(=O)N3CCOCC3)cc(F)cc2C2CC2)C1)c1cc(=O)[nH]c2c(F)cccc12" occupy?
b2

For the record "O=C(N[C@@H]1CCN(c2c(C(=O)N3CCOCC3)cc(Br)cc2C(F)(F)F)C1)c1cc(C(F)F)[nH]c(=O)c1" , report the class its Papp corresponds to.
b2

Dear colleague, I would appreciate it if you could identify the bin for "N#Cc1cc(C(=O)N2CCNC(=O)C2)c(N2CC[C@@H](NC(=O)c3cc(=O)[nH]c4c(F)cccc34)C2)c(C(F)(F)F)c1" and reply at your convenience.
b0

Hi, small favor: classify "N#Cc1cc(C(=O)N2CCOCC2)c(N2CC[C@@H](NC(=O)c3cc(=O)[nH]c4c(F)cccc34)C2)c(C2CC2)c1" by its Papp when you get a moment.
b1

Where would "CCS(=O)(=O)N1CCN(C(=O)c2cc(C#N)cc(C(F)(F)F)c2N2CC[C@@H](NC(=O)c3cc(=O)[nH]c4c(F)cccc34)C2)CC1" land among the classes by reported Papp?
b0

Please classify: "N#Cc1cc(C(=O)N2CCOCC2)c(N2C[C@H](NC(=O)c3cc(=O)[nH]c4c(F)c(F)ccc34)CC2=O)c(C(F)(F)F)c1"
b0

Kindly identify the class of "COCCN1CCN(C(=O)c2cc(C#N)cc(C(F)(F)F)c2N2CC[C@@H](NC(=O)c3cc(=O)[nH]c4c(F)cccc34)C2)CC1" .
b1

Each compound maps to one class by Papp. Which class for "O=C(N[C@@H]1CCN(c2c(C(=O)N3CCOCC3)cc(Br)cc2C(F)(F)F)C1)c1cc(=O)[nH]c2c(F)ccc(F)c12" ?
b2

The origin of these recorded values is patent US20240158368A1.
